Target: hCB2 (Homo sapiens)
Construct: purchased BioSignal
Assay: hCB2 receptor binding (3H-CP55,940 displacement, membranes)
Settings: Table 1; human CB2 membranes, 3H-CP55,940; read-out: Ki(hCB2)
RECORDED_ENDPOINT: Ki

SMILES_STRING: C=CCNc1ccc2c(c1)nc(Cc1ccc(OCC)cc1)n2CC1CC1
MEASURED_ON: hCB2 (Homo sapiens)
EXPERIMENTAL_VALUE: 308 nM

----------
# key: entry, value: pKi
Molecular target: hCB2 (Homo sapiens, UniProt P34972)
Construct: purchased BioSignal
Sequence (P34972 whole entry): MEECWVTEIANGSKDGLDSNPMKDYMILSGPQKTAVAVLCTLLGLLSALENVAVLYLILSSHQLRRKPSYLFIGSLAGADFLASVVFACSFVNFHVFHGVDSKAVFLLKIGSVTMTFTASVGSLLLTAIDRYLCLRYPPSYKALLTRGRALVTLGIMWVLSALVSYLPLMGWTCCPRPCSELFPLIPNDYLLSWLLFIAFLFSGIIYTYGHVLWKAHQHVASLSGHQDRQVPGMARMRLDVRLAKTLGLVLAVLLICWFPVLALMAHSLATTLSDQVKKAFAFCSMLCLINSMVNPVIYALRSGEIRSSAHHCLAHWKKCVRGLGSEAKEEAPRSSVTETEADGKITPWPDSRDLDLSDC
Assay: hCB2 receptor binding (3H-CP55,940 displacement, membranes)
pKi: −log10 of the molar value.

SMILES_STRING: CCOc1ccc(Cc2nc3cc(CN4CCOCC4)ccc3n2CC2CC2)cc1
pKi: 6.75

SMILES_STRING: CCOc1ccc(Cc2nc3cc(C(=O)N(CC)CC)ccc3n2CC2CC2)cn1
pKi: 6.88

SMILES_STRING: CCOc1ccc(Nc2nc3cc(C(=O)N(CC)CC)ccc3n2CCC(C)C)cc1
pKi: 7.01

SMILES_STRING: CCOc1ccc(Cc2nc3cc(C(=O)N(CC)CC)ccc3n2CCC(=O)OC)cc1
pKi: 6.85

----------
Biological target: hCB2 (Homo sapiens, UniProt P34972)
Construct: purchased BioSignal
Assay: hCB2 GTPγS binding
Assay type: biochemical
Settings: read-out: % Emax, hCB2
# key: entry, value: Emax

SMILES_STRING: CCOc1ccc(Nc2nc3cc(C(=O)N(CC)CC)ccc3n2CCC(C)C)cc1
SCALE_UNIT: %
Emax: 64
//
SMILES_STRING: CCOc1ccc(Cc2nc3cc(C(=O)N(CC)CC)ccc3n2CC2CC2)cn1
SCALE_UNIT: %
Emax: 93
//
SMILES_STRING: CCOc1ccc(Cc2nc3cc(CN4CCOCC4)ccc3n2CC2CC2)cc1
SCALE_UNIT: %
Emax: 62
//
SMILES_STRING: CCOc1ccc(Cc2nc3cc(C(=O)N(CC)CC)ccc3n2CCC(=O)OC)cc1
SCALE_UNIT: %
Emax: 53

----------
# key: entry, value: IC50
Target: hCB2 (Homo sapiens, UniProt P34972)
Construct: purchased BioSignal
Assay: hCB2 receptor binding (3H-CP55,940 displacement, membranes)
Settings: hCB2 IC50 (nM)

COMPOUND: CCOc1ccc(Cc2nc3cc(N(C)C(=O)CC(C)C)cnc3n2CC2CC2)cc1 [Example 59]
IC50: 328 nM
--
COMPOUND: CCOc1ccc(Cc2nc3cc(C(=O)N(CC)CC)ccc3n2C[C@@H]2CCCO2)cc1 [Example 42]
IC50: 23 nM
--
COMPOUND: CCOc1ccc(Cc2nc3cc(C(=O)N(CC)CC)cnc3n2Cc2ccc([N+](=O)[O-])s2)cc1 [Example 57]
IC50: 9.5 nM
--
COMPOUND: CCOc1ccc(C(C)c2nc3cc(N(C)C(=O)NC(C)C)ccc3n2CC2CC2)cc1 (single isomer, unassigned; (-)) [Example 54]
IC50: 15.5 nM
--
COMPOUND: CCOc1ccc(Cc2nc3cc(N(C)C(=O)CC(C)C)ccc3n2Cc2ccsc2)cc1 [Example 47]
IC50: 3.3 nM
--
COMPOUND: CCOc1ccc(C(C)c2nc3cc(N(C)C(=O)NC(C)C)ccc3n2CC2CC2)cc1 (racemic) [Example 53]
IC50: 36 nM
--
COMPOUND: CCOc1ccc(C(C)c2nc3cc(N(C)C(=O)NC(C)C)ccc3n2CC2CC2)cc1 (single isomer, unassigned; (+)) [Example 55]
IC50: 715 nM

----------
Target: hCB2-Sf9 (Homo sapiens)
Construct: host or cells: Sf9 (inferred from the head 'hCB2-Sf9')
Sequence (P34972 whole entry): as above
Assay: Ki hCB2-Sf9 binding (compounds made in a plate)
Details: Table 2, printed in the IC50 (nM) column; n = 2; measured from 2 compounds made in a plate

SMILES_STRING: CCOc1ccc(Cc2nc3cc(N(C)S(=O)(=O)c4ccccc4)cnc3n2CC2CC2)cc1
MEASURED_ON: hCB2-Sf9 (Homo sapiens)
Ki [nM]: 11.4
//
SMILES_STRING: CCOc1ccc(Cc2nc3cc(N(C)S(=O)(=O)c4cccs4)cnc3n2CC2CC2)cc1
MEASURED_ON: hCB2-Sf9 (Homo sapiens)
Ki [nM]: 4.5

----------
# key: entry, value: IC50
Biological target: hCB2 (Homo sapiens)
Construct: purchased BioSignal
Test: hCB2 receptor binding (3H-CP55,940 displacement, membranes)
Conditions: hCB2 IC50 (nM)

COMPOUND: CCOc1ccc(C(O)c2nc3cc(C(=O)N(CC)CC)ccc3n2CCC(C)C)cc1 (stereo not shown)
MEASURED_ON: hCB2 (Homo sapiens)
IC50 / nM: 100

COMPOUND: CCOc1ccc(Cc2nc3cc(C(=O)N(CC)CC)ccc3n2Cc2ccsc2)cc1
MEASURED_ON: hCB2 (Homo sapiens)
IC50 / nM: 2.8

COMPOUND: CCOc1ccc(Cc2nc3cc(N(C)C(=O)CC(C)C)ccc3n2Cc2ccc(COC(C)=O)o2)cc1
MEASURED_ON: hCB2 (Homo sapiens)
IC50 / nM: 32

COMPOUND: CCOc1ccc(C(C)c2nc3cc(N(C)C(=O)NC(C)C)ccc3n2CC2CCCCC2)cc1 (stereo not shown)
MEASURED_ON: hCB2 (Homo sapiens)
IC50 / nM: 5.4

----------
Target: hCB2 (Homo sapiens)
Construct: purchased BioSignal
Experiment: hCB2 receptor binding (3H-CP55,940 displacement, membranes)
Settings: read-out: hCB2 IC50
RECORDED_ENDPOINT: IC50 (nM)

SMILES_STRING: CCOc1ccc(Cc2nc3cc(N(C)C(=O)NC(C)C)cnc3n2CC2CC2)cc1
SCALE_UNIT: nM
EXPERIMENTAL_VALUE: 970

----------
# key: entry, value: Emax
Target: hCB2 (Homo sapiens, UniProt P34972)
Construct: purchased BioSignal
Assay: hCB2 GTPγS binding
Format: biochemical

COMPOUND: CCOc1ccc(C(C)c2nc3cc(N(C)C(=O)NC(C)C)ccc3n2CC2CC2)cc1 (single isomer, unassigned; (-)) [Example 54]
MEASURED_ON: hCB2 (Homo sapiens, UniProt P34972)
Emax, %: 66
//
COMPOUND: CCOc1ccc(Cc2nc3cc(N(C)C(=O)CC(C)C)cnc3n2CC2CC2)cc1
MEASURED_ON: hCB2 (Homo sapiens, UniProt P34972)
Emax, %: 67
//
COMPOUND: CCOc1ccc(Cc2nc3cc(C(=O)N(CC)CC)ccc3n2Cc2ccsc2)cc1
MEASURED_ON: hCB2 (Homo sapiens, UniProt P34972)
Emax, %: 74

----------
Biological target: hCB2 (Homo sapiens, UniProt P34972)
Construct: purchased BioSignal
Assay: hCB2 GTPγS binding
Format: biochemical
pEC50: −log10 of the molar value.
RECORDED_ENDPOINT: pEC50

COMPOUND: CCOc1ccc(Cc2nc3cc(C(=O)N(CC)CC)ccc3n2CCC(=O)OC)cc1
MEASURED_ON: hCB2 (Homo sapiens, UniProt P34972)
RECORDED_ENDPOINT: pEC50
EXPERIMENTAL_VALUE: 7.19
--
COMPOUND: CCOc1ccc(Cc2nc3cc(N(C)C(=O)CC(C)C)cnc3n2CC2CC2)cc1
MEASURED_ON: hCB2 (Homo sapiens, UniProt P34972)
RECORDED_ENDPOINT: pEC50
EXPERIMENTAL_VALUE: 7.19
--
COMPOUND: CCOc1ccc(Cc2nc3cc(CN4CCOCC4)ccc3n2CC2CC2)cc1
MEASURED_ON: hCB2 (Homo sapiens, UniProt P34972)
RECORDED_ENDPOINT: pEC50
EXPERIMENTAL_VALUE: 7.09
--
COMPOUND: CCOc1ccc(Cc2nc3cc(C(=O)N(CC)CC)ccc3n2C[C@@H]2CCCO2)cc1
MEASURED_ON: hCB2 (Homo sapiens, UniProt P34972)
RECORDED_ENDPOINT: pEC50
EXPERIMENTAL_VALUE: 8.30
--
COMPOUND: CCOc1ccc(C(O)c2nc3cc(C(=O)N(CC)CC)ccc3n2CCC(C)C)cc1 (centres unmarked)
MEASURED_ON: hCB2 (Homo sapiens, UniProt P34972)
RECORDED_ENDPOINT: pEC50
EXPERIMENTAL_VALUE: 7.16
--
COMPOUND: CCOc1ccc(Cc2nc3cc(N(C)C(=O)CC(C)C)ccc3n2Cc2ccc(COC(C)=O)o2)cc1
MEASURED_ON: hCB2 (Homo sapiens, UniProt P34972)
RECORDED_ENDPOINT: pEC50
EXPERIMENTAL_VALUE: 8.17
--
COMPOUND: CCOc1ccc(Cc2nc3cc(C(=O)N(CC)CC)ccc3n2CC2CC2)cn1
MEASURED_ON: hCB2 (Homo sapiens, UniProt P34972)
RECORDED_ENDPOINT: pEC50
EXPERIMENTAL_VALUE: 7.01
--
COMPOUND: CCOc1ccc(C(C)c2nc3cc(N(C)C(=O)NC(C)C)ccc3n2CC2CC2)cc1 (single isomer, unassigned; (-)) [Example 54]
MEASURED_ON: hCB2 (Homo sapiens, UniProt P34972)
RECORDED_ENDPOINT: pEC50
EXPERIMENTAL_VALUE: 8.47
--
COMPOUND: CCOc1ccc(Cc2nc3cc(N(C)C(=O)CC(C)C)ccc3n2Cc2ccsc2)cc1
MEASURED_ON: hCB2 (Homo sapiens, UniProt P34972)
RECORDED_ENDPOINT: pEC50
EXPERIMENTAL_VALUE: 8.85
--
COMPOUND: CCOc1ccc(Nc2nc3cc(C(=O)N(CC)CC)ccc3n2CCC(C)C)cc1
MEASURED_ON: hCB2 (Homo sapiens, UniProt P34972)
RECORDED_ENDPOINT: pEC50
EXPERIMENTAL_VALUE: 7.19
--
COMPOUND: CCOc1ccc(C(C)c2nc3cc(N(C)C(=O)NC(C)C)ccc3n2CC2CCCCC2)cc1 (centres unmarked)
MEASURED_ON: hCB2 (Homo sapiens, UniProt P34972)
RECORDED_ENDPOINT: pEC50
EXPERIMENTAL_VALUE: 8.82
--
COMPOUND: CCOc1ccc(Cc2nc3cc(C(=O)N(CC)CC)ccc3n2Cc2ccsc2)cc1
MEASURED_ON: hCB2 (Homo sapiens, UniProt P34972)
RECORDED_ENDPOINT: pEC50
EXPERIMENTAL_VALUE: 8.92
--
COMPOUND: CCOc1ccc(C(C)c2nc3cc(N(C)C(=O)NC(C)C)ccc3n2CC2CC2)cc1 (racemic) [Example 53]
MEASURED_ON: hCB2 (Homo sapiens, UniProt P34972)
RECORDED_ENDPOINT: pEC50
EXPERIMENTAL_VALUE: 8.17
--
COMPOUND: CCOc1ccc(Cc2nc3cc(C(=O)N(CC)CC)cnc3n2Cc2ccc([N+](=O)[O-])s2)cc1
MEASURED_ON: hCB2 (Homo sapiens, UniProt P34972)
RECORDED_ENDPOINT: pEC50
EXPERIMENTAL_VALUE: 8.55

These entries and their values trace back to patent US7030139B2.
